Task for the reader: assign each of the following compounds its reported activation.
# target: Endoribonuclease toxin MazF (Escherichia coli (strain K12)) (UniProt P0AE70)
# Sequence (P0AE70 whole entry, looked up): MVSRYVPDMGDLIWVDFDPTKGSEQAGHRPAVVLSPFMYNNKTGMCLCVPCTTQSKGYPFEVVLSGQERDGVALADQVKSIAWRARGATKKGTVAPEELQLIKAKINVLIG
# procedure-text: activators of E. coli MazEF toxin-antitoxin RNase, primary screen, biochemical, fluorescence, uHTS (AID 504720)
# experimental-setup: FAM/BHQ RNA-DNA oligo cleavage fluorescence, 5 h, at 20 µM, hits give high values
Among all 350,000 compounds or so, about 1,100 (0.31%) were called active. Shown is part of a subset that was picked to be rich in actives.
Answers are plain numbers, in %.

Examples from the recorded data:
## Input Data request, read-out activation, for CCCCCCCC(=O)NC(Nc1ccccc1OC)C(Cl)(Cl)Cl (centres undefined)
## Output -13.4

## Input Data request, read-out activation, for CN1C(=O)C(CC(N)=O)N(NC(=O)c2ccc(Cl)cc2)C1=S (centres undefined)
## Output -6.03

## Input Data request, read-out activation, for O=C(NCCOc1ccccc1)N1[C@H]2CC[C@@H]1C=C(c1ccc(F)cc1OCc1ccccc1)C2
## Output -1.59

Next:
## Input Data request, read-out activation, for CC(=O)N1C(=O)/C(=C2\SC(=S)N(NC(=O)c3ccc(O)cc3)C2=O)c2ccccc21
## Output 4.76

====

# target: Endoribonuclease toxin MazF (Escherichia coli (strain K12)) (UniProt P0AE70)
# procedure-text: activators of E. coli MazEF toxin-antitoxin RNase, primary screen, biochemical, fluorescence, uHTS (AID 504720)
# experimental-setup: FAM/BHQ RNA-DNA oligo cleavage fluorescence, 5 h, at 20 µM
Screen size: about 350,000 compounds; about 1,100 (0.31%) were called active. Rule as the data show it: active = activation above about 50%; inactive = the rest. This excerpt belongs to a sample that is enriched for actives.
Output constraint: value belongs to active, inactive

The following compounds have reported results that may help.
## Input Which outcome was entered for the compound CSCCC1NC2(C(=O)Nc3ccc(Cl)cc32)[C@@H]2C(=O)N(C3CCCC3)C(=O)[C@H]12 (stereo partly specified) in this test?
## Output inactive

## Input Which outcome was entered for the compound COCCCNc1nc2c(-c3cccc(C)c3)nnn2c2ccc(Cl)cc12 in this test?
## Output inactive

## Input Which outcome was entered for the compound CCN(CC(=O)NCc1cccs1)C(=O)c1cccc(S(=O)(=O)Nc2ccccc2OC)c1 in this test?
## Output inactive

## Input Which outcome was entered for the compound O=C(NCC12CC3CC(C1)CC(CNC(=O)N1CCCC1)(C3)C2)N1CCCC1 in this test?
## Output inactive

## Input Which outcome was entered for the compound NC1=NC(=O)C(Cc2cccc(Cl)c2Cl)S1 (stereo unspecified) in this test?
## Output inactive

Next:
## Input Which outcome was entered for the compound O=C(c1ccc(Cl)cc1)N1N=C(c2ccccn2)CC1(O)C(F)(F)F (stereo unspecified) in this test?
## Output inactive

## Input Which outcome was entered for the compound CCOC(=O)N1CCN(C(=O)c2ccc3nc4cc(Cl)ccc4c(=O)n3c2)CC1 in this test?
## Output inactive

====

# target: Endoribonuclease toxin MazF (Escherichia coli (strain K12)) (UniProt P0AE70)
# procedure-text: activators of E. coli MazEF toxin-antitoxin RNase, primary screen, biochemical, fluorescence, uHTS (AID 504720)
# experimental-setup: FAM/BHQ RNA-DNA oligo cleavage fluorescence, 5 h, at 20 µM
Among all 350,000 compounds or so, about 1,100 (0.31%) were called active. Cut-off read from the data, not from the text of the source: active = activation above about 50%; inactive = the rest. The sample as a whole holds a higher share of actives than the screen did.
Output constraint: value belongs to active, inactive

## Input Which outcome was entered for the molecule O=C1/C(=C/c2coc3ccc(O)cc3c2=O)SC(=S)N1c1ccccc1 in this test?
## Output inactive

## Input Which outcome was entered for the molecule Cc1cc(C)cc(Oc2c(C(F)(F)F)oc3cc(OCC(=O)O)ccc3c2=O)c1 in this test?
## Output inactive

## Input Which outcome was entered for the molecule O=C1C2(Cl)C3(Cl)C4(Cl)C(Cl)(Cl)C5(Cl)C3(Cl)C1(Cl)C5(Cl)C24Cl (configuration not stated) in this test?
## Output active

## Input Which outcome was entered for the molecule CC(C)c1ccc(NC2CCCN(C(=O)c3ccncc3)C2)cc1 (configuration not stated) in this test?
## Output inactive

## Input Which outcome was entered for the molecule COCCNc1nc(-c2ccccc2)nc2c1oc1ccccc12 in this test?
## Output inactive

Next:
## Input Which outcome was entered for the molecule O=C(Cc1ccccc1)Nc1ccc(NC(=O)c2cccnc2)cc1 in this test?
## Output inactive

## Input Which outcome was entered for the molecule O=C(COC(=O)c1ccc(F)cc1F)Nc1ncccn1 in this test?
## Output inactive

## Input Which outcome was entered for the molecule CCCCN1C(=O)/C(=C/C=C2/C=Cc3ccccc3N2CC)SC1=S in this test?
## Output inactive

## Input Which outcome was entered for the molecule Cc1nc(Nc2ccccc2F)c2nnn(Cc3ccccc3Cl)c2n1 in this test?
## Output active

## Input Which outcome was entered for the molecule COc1ccc(N=Nc2c(-c3ccc(OC)cc3)[nH]oc2=O)cc1 in this test?
## Output active

## Input Which outcome was entered for the molecule Cc1ccc(-c2nn(-c3ccccc3)cc2/C=C2\SC(=S)N(CCCCCC(=O)O)C2=O)o1 in this test?
## Output active

## Input Which outcome was entered for the molecule CCc1ccc2nc(Nc3ncc(C(C)=O)c(C)n3)nc(C)c2c1 in this test?
## Output inactive

## Input Which outcome was entered for the molecule C[C@@H](Nc1nc(-c2ccccc2)nc2c1oc1ccccc12)C(=O)O in this test?
## Output inactive
